- Test system: PC3 cells
- Test Details: Cell viability (cell kill) assay
- Format: cell-based
- Test Settings: Table 11, 3 days
Property: IC50 (nM)

Compound | Property | Val
COc1cc2cc(c1Cl)N(C)C(=O)C[C@H](OC(=O)[C@H](C)N(C)C(=O)CCS)[C@]1(C)O[C@H]1[C@H](C)[C@@H]1C[C@@](O)(NC(=O)O1)[C@H](OC)/C=C/C=C(\C)C2 [DM1 (free drug)] | IC50 | 0.47

From: patent US9688764B2
